# assay method text: yeast display, Sf9 membrane polyspecificity reagent, FACS + sequencing; frameworks hold sequencing errors
measured endpoint: polyreactivity (PSR sort gate)

Use these answered entries as a reference point.
residue sequence	result
QVQLVESGGGLVQAGGSLRLSCSASGITFYRYVMGWYRQAPGKERELVAAISRGGGSTYYADSVKGRFTISRDNAKNTVYLQMNSLKPEDTAVYYCAARAWVQGGIGGQSWFDYWGQGTQVTVSS	high polyreactivity
QVQLVESGGGLVQAGGSLRLSCAASGLTFGYYVMGWYRQAPGKERELVADINFSGGSTYYADSVKGRFTISRDNAKNTVYLQMNSLKPEDTAVYYCNGVVYRFTVSTGYESWGQGTQVTVSS	low polyreactivity
QVQLVESGGGLVQAGGSLRLSCAASGNTFIRNVMGWYRQAPGKERELVAGSRTGGSTFYADSVKGRFTISRDNAKNTVYLQMNSLKPEDTAVYYCNADVGDEGNLPYVIRPMDYWGQGTQVTVSS	low polyreactivity
QVQLVESGGGLVQAGGSLRLSCAASGSTFFQYAMGWYRQAPGKERELVAAITTSGGRTYYADSVKGRFTISRDNAKNTVYLQMNSLKPEDTAVYYCAGYNYWGQGTQVTVSS	high polyreactivity
QVQLVESGGGLVQAGGSLRFSCAASGSIFRVNAMGWYRQAPGKERELVAAITDGGITNYADSVKGRFTISRDNAKNTVYLQMNSLKPEDTAVYYCAADTDRDFHYVVPTYDYWGQGTQVTVSS	low polyreactivity

State recorded polyreactivity (PSR sort gate) for all listed sequences.
1. QVQLVESGGGLVQAGGSLRLSCAASGSTFYRNAMGWYRQAPGKERELVAAISSTGGSTYYADSVKGRFTISRDNAKNTVYLQMNSLKAEDTAVYYCAVDPGLTKGFGYWGQGTHVTVSS
2. QVQLVESGGGLVQAGGSLRLSCAASGYIFGYYVMGWYRQAPGKERELVAAISGRGGRTYYADSVKGRFTISRDNAKNTVYLQMNSLKPEDTAVYYCAAADLPGTMYYWGQGTQVTVSS

1. low polyreactivity
2. high polyreactivity
